# Method Notes: total protein half-life in vivo (active degradation + dilution); higher = more stable protein
# Conditions Used: E. coli NCM3722 delta-smpB; growth: N-lim chemostat; doubling time 6 h
Attribute Measured: total protein half-life in vivo (h)
Write down the numeric answer in h and omit the unit.

>  <Sequence Input>
MFPFRRNVLAFAALLALSSPVLAGKLAIVIDDFGYRPHNENQVLAMPSAISVAVLPDSPHAREMATKAHNSGHEVLIHLPMAPLSKQPLEKNTLRPEMSSDEIERIIRSAVNNVPYAVGINNHMGSKMTSNLFGMQKVMQALERYNLYFLDSVTIGNTQAMRAAQGTGVKVIKRKVFLDDSQNEADIRVQFNRAIDLARRNGSTIAIGHPHPATVRVLQQMVYNLPPDITLVKASSLLNEPQVDTSTPPKNAVPDAPRNPFRGVKLCKPKKPIEPVYANRFFEVLSESISQSTLIVYFQHQWQGWGKQPEAAKFNASAN

>  <Scale Unit>
h

>  <total protein half-life in vivo>
4.79

$$$$

**Query** Given the sequence MNSCDFRVFLQEFGTTVHLSLPGSVSEKERLLLKLLMQGMSVTEISQYRNRSAKTISHQKKQLFEKLGIQSDITFWRDIFFQYNPEIISATGSNSHRYINDNHYHHIVTPEAISLALENHEFKPWIQPVFCAQTGVLTGCEVLVRWEHPQTGIIPPDQFIPLAESSGLIVIMTRQLMKQTADILMPVKHLLPDNFHIGINVSAGCFLAAGFEKECLNLVNKLGNDKIKLVLELTERNPIPVTPEARAIFDSLHQHNITFALDDFGTGYATYRYLQAFPVDFIKIDKSFVQMASVDEISGHIVDNIVELARKPGLSIVAEGVETQEQADLMIGKGVHFLQGYLYSPPVPGNKFISEWVMKAGG , what is its reported total protein half-life in vivo?
**Result** 5.76

----------
Entries and their total protein half-life in vivo values follow.
# Method Notes: total protein half-life in vivo (active degradation + dilution); higher = more stable protein
# Conditions Used: E. coli NCM3722 delta-hslV; growth: N-lim chemostat; doubling time 6 h
Answer format: numeric, h implied, no suffix.

>  <Sequence Input>
MFPFRRNVLAFAALLALSSPVLAGKLAIVIDDFGYRPHNENQVLAMPSAISVAVLPDSPHAREMATKAHNSGHEVLIHLPMAPLSKQPLEKNTLRPEMSSDEIERIIRSAVNNVPYAVGINNHMGSKMTSNLFGMQKVMQALERYNLYFLDSVTIGNTQAMRAAQGTGVKVIKRKVFLDDSQNEADIRVQFNRAIDLARRNGSTIAIGHPHPATVRVLQQMVYNLPPDITLVKASSLLNEPQVDTSTPPKNAVPDAPRNPFRGVKLCKPKKPIEPVYANRFFEVLSESISQSTLIVYFQHQWQGWGKQPEAAKFNASAN

>  <total protein half-life in vivo, h>
6.09

$$$$

**Query** # total protein half-life in vivo lookup, item MGKAVIAIHGGAGAISRAQMSLQQELRYIEALSAIVETGQKMLEAGESALDVVTEAVRLLEECPLFNAGIGAVFTRDETHELDACVMDGNTLKAGAVAGVSHLRNPVLAARLVMEQSPHVMMIGEGAENFAFARGMERVSPEIFSTSLRYEQLLAARKEGATVLDHSGAPLDEKQKMGTVGAVALDLDGNLAAATSTGGMTNKLPGRVGDSPLVGAGCYANNASVAVSCTGTGEVFIRALAAYDIAALMDYGGLSLAEACERVVMEKLPALGGSGGLIAIDHEGNVALPFNTEGMYRAWGYAGDTPTTGIYREKGDTVATQ
**Result** 3.58

**Query** One more sequence: MATYLIGDVHGCYDELIALLHKVEFTPGKDTLWLTGDLVARGPGSLDVLRYVKSLGDSVRLVLGNHDLHLLAVFAGISRNKPKDRLTPLLEAPDADELLNWLRRQPLLQIDEEKKLVMAHAGITPQWDLQTAKECARDVEAVLSSDSYPFFLDAMYGDMPNNWSPELRGLGRLRFITNAFTRMRFCFPNGQLDMYSKESPEEAPAPLKPWFAIPGPVAEEYSIAFGHWASLEGKGTPEGIYALDTGCCWGGTLTCLRWEDKQYFVQPSNRHKDLGEAAAS
**Result** 3.52

**Query** Proceed to MMRIALFLLTNLAVMVVFGLVLSLTGIQSSSVQGLMIMALLFGFGGSFVSLLMSKWMALRSVGGEVIEQPRNERERWLVNTVATQARQAGIAMPQVAIYHAPDINAFATGARRDASLVAVSTGLLQNMSPDEAEAVIAHEISHIANGDMVTMTLIQGVVNTFVIFISRILAQLAAGFMGGNRDEGEESNGNPLIYFAVATVLELVFGILASIITMWFSRHREFHADAGSAKLVGREKMIAALQRLKTSYEPQEATSMMALCINGKSKSLSELFMTHPPLDKRIEALRTGEYLK
**Result** 5.25

**Query** Also MAEKRNIFLVGPMGAGKSTIGRQLAQQLNMEFYDSDQEIEKRTGADVGWVFDLEGEEGFRDREEKVINELTEKQGIVLATGGGSVKSRETRNRLSARGVVVYLETTIEKQLARTQRDKKRPLLHVETPPREVLEALANERNPLYEEIADVTIRTDDQSAKVVANQIIHMLESN [P0A6D7] , if possible.
**Result** 2.76

----------
# Method Notes: total protein half-life in vivo (active degradation + dilution); higher = more stable protein
# Conditions Used: E. coli NCM3722 delta-hslV; growth: N-lim chemostat; doubling time 6 h
Attribute Measured: total protein half-life in vivo (h)
Respond with the bare value in h.

Below, 3 sequences whose answers are already recorded.
>  <Sequence Input>
MMKKFIAPLLALLVSGCQIDPYTHAPTLTSTDWYDVGMEDAISGSAIKDDDAFSDSQADRGLYLKGYAEGQKKTCQTDFTYARGLSGKSFPASCNNVENASQLHEVWQKGADENASTIRLN

>  <Scale Unit>
h

>  <total protein half-life in vivo>
4.8

$$$$
>  <Sequence Input>
MTLEWWFAYLLTSIILSLSPGSGAINTMTTSLNHGYRGAVASIAGLQTGLAIHIVLVGVGLGTLFSRSVIAFEVLKWAGAAYLIWLGIQQWRAAGAIDLKSLASTQSRRHLFQRAVFVNLTNPKSIVFLAALFPQFIMPQQPQLMQYIVLGVTTIVVDIIVMIGYATLAQRIALWIKGPKQMKALNKIFGSLFMLVGALLASARHA [P0AG34]

>  <Scale Unit>
h

>  <total protein half-life in vivo>
1.51

$$$$
>  <Sequence Input>
MSKLFWAMLSFITRLPVPRRWSQGLDFEHYSRGIITFPLIGLLLGAISGLVFMVLQAWCGAPLAALFSVLVLVLMTGGFHLDGLADTCDGVFSARSRDRMLEIMRDSRLGTHGGLALIFVVLAKILVLSELALRGESILASLAAACAVSRGTAALLMYRHRYAREEGLGNVFIGKIDGRQTCVTLGLAAIFAAVLLPGMHGVAAMVVTMVAIFILGQLLKRTLGGQTGDTLGAAIELGELVFLLALL

>  <Scale Unit>
h

>  <total protein half-life in vivo>
6.15

$$$$

As a next step, examine the sequence that follows.
**Query** What value of total protein half-life in vivo has been reported for the following sequence? MNEFFPLASAAGMTVGLAVCALIVGLALAMFFAVWESAKWRPVAWAGSALVTILRGLPEILVVLFIYFGSSQLLLTLSDGFTINLGFVQIPVQMDIENFDVSPFLCGVIALSLLYAAYASQTLRGALKAVPVGQWESGQALGLSKSAIFFRLVMPQMWRHALPGLGNQWLVLLKDTALVSLISVNDLMLQTKSIATRTQEPFTWYIVAAAIYLVITLLSQYILKRIDLRATRFERRPS [P0AE34]
**Result** 6.66

----------
# Method Notes: total protein half-life in vivo (active degradation + dilution); higher = more stable protein
# Conditions Used: E. coli NCM3722 delta-smpB; growth: N-lim chemostat; doubling time 6 h
Recorded total protein half-life in vivo by entry

Worked examples, 3 sequences total:
>  <Sequence Input>
MMRIALFLLTNLAVMVVFGLVLSLTGIQSSSVQGLMIMALLFGFGGSFVSLLMSKWMALRSVGGEVIEQPRNERERWLVNTVATQARQAGIAMPQVAIYHAPDINAFATGARRDASLVAVSTGLLQNMSPDEAEAVIAHEISHIANGDMVTMTLIQGVVNTFVIFISRILAQLAAGFMGGNRDEGEESNGNPLIYFAVATVLELVFGILASIITMWFSRHREFHADAGSAKLVGREKMIAALQRLKTSYEPQEATSMMALCINGKSKSLSELFMTHPPLDKRIEALRTGEYLK

>  <Result>
4.77 h

$$$$
>  <Sequence Input>
MNNLPLLNDLRVFMLVARRAGFAAVAEELGVSPAFVSKRIALLEQTLNVVLLHRTTRRVTITEEGERIYEWAQRILQDVGQMMDELSDVRQVPQGMLRIISSFGFGRQVVAPALLALAKAYPQLELRFDVEDRLVDLVNEGVDLDIRIGDDIAPNLIARKLATNYRILCASPEFIAQHGAPKHLTDLSALPCLVIKERDHPFGVWQLRNKEGPHAIKVTGPLSSNHGEIVHQWCLDGQGIALRSWWDVSENIASGHLVQVLPEYYQPANVWAVYVSRLATSAKVRITVEFLRQYFAEHYPNFSLEHA

>  <Result>
1.16 h

$$$$
>  <Sequence Input>
MAEKRNIFLVGPMGAGKSTIGRQLAQQLNMEFYDSDQEIEKRTGADVGWVFDLEGEEGFRDREEKVINELTEKQGIVLATGGGSVKSRETRNRLSARGVVVYLETTIEKQLARTQRDKKRPLLHVETPPREVLEALANERNPLYEEIADVTIRTDDQSAKVVANQIIHMLESN [P0A6D7]

>  <Result>
2.69 h

$$$$

// switching to the query sequence
**Query** total protein half-life in vivo lookup needed for MTWLPLNPIPLKDRVSMIFLQYGQIDVIDGAFVLIDKTGIRTHIPVGSVACIMLEPGTRVSHAAVRLAAQVGTLLVWVGEAGVRVYASGQPGGARSDKLLYQAKLALDEDLRLKVVRKMFELRFGEPAPARRSVEQLRGIEGSRVRATYALLAKQYGVTWNGRRYDPKDWEKGDTINQCISAATSCLYGVTEAAILAAGYAPAIGFVHTGKPLSFVYDIADIIKFDTVVPKAFEIARRNPGEPDREVRLACRDIFRSSKTLAKLIPLIEDVLAAGEIQPPAPPEDAQPVAIPLPVSLGDAGHRSS , thanks.
**Result** 1.32 h
